In this section, each of the molecules is paired with its reported inhibition.
Test system: Hepatitis C virus NS3 helicase
Test: HCV NS3 helicase inhibitors, primary screen, biochemical, fluorescence polarization, NIH Clinical Collection (AID 743270)
Conditions: NS3 helicase binding to Cy5-dT15 DNA, stronger effect = higher value, concentration not given here

- molecule: "OCCN1CCN(CCCN2c3ccccc3Sc3ccc(Cl)cc32)CC1"
  inhibition [%]: -2.27
- molecule: "COc1cc([C@@H]2c3cc4c(cc3[C@H](O)[C@H]3COC(=O)[C@H]23)OCO4)cc(OC)c1OC"
  inhibition [%]: -0.45
- molecule: "Clc1cccc(Cl)c1NC1=NCCN1"
  inhibition [%]: -2.77
- molecule: "Cc1ccc(S(=O)(=O)NC(=O)NN2CCCCCC2)cc1"
  inhibition [%]: -2.27
- molecule: "CC(N=C(NC#N)Nc1ccncc1)C(C)(C)C (configuration not stated)"
  inhibition [%]: -0.22
- molecule: "CC12CC3CC(C)(C1)CC(N)(C3)C2"
  inhibition [%]: -1.36
- molecule: "NC(=O)c1cnccn1"
  inhibition [%]: -4.09
- molecule: "CCN(CC)CCOC(=O)C1(C2CCCCC2)CCCCC1"
  inhibition [%]: -3.18
- molecule: "CCCNC(C)C(=O)Nc1ccccc1C (configuration not stated)"
  inhibition [%]: -4.09
- molecule: "CCN(CC)C(=S)SSC(=S)N(CC)CC"
  inhibition [%]: -1.19
- molecule: "CC(=O)CC(c1ccccc1)c1c(O)c2ccccc2oc1=O (configuration not stated)"
  inhibition [%]: -2.27
- molecule: "C/C=C/C(=O)N(CC)c1ccccc1C"
  inhibition [%]: -2.77
- molecule: "Cc1nc2ccccn2c(=O)c1CCN1CCC(C(=O)c2ccc(F)cc2)CC1"
  inhibition [%]: 5.94
- molecule: "COCCOC(=O)C1=C(C)NC(C)=C(C(=O)OC(C)C)C1c1cccc([N+](=O)[O-])c1 (configuration not stated)"
  inhibition [%]: 6.77
- molecule: "CN1CCCC(n2nc(Cc3ccc(Cl)cc3)c3ccccc3c2=O)CC1 (configuration not stated)"
  inhibition [%]: -6.73
- molecule: "Cc1ccc(Cl)c(Nc2ccccc2C(=O)O)c1Cl"
  inhibition [%]: 0.45
- molecule: "CC(=O)CCCCn1c(=O)c2c(ncn2C)n(C)c1=O"
  inhibition [%]: -5.15
- molecule: "CC(=O)OCC(=O)[C@@]1(O)CC[C@H]2[C@@H]3CCC4=CC(=O)CC[C@]4(C)[C@H]3C(=O)C[C@@]21C"
  inhibition [%]: -0.45
- molecule: "CCN(Cc1ccncc1)C(=O)C(CO)c1ccccc1 (configuration not stated)"
  inhibition [%]: -2.27
- molecule: "CNCCCC12CCC(c3ccccc31)c1ccccc12"
  inhibition [%]: -1.98
- molecule: "OC(CCN1CCCC1)(c1ccccc1)C1CCCCC1 (configuration not stated)"
  inhibition [%]: -3.18
- molecule: "O=S(=O)(O)CCS"
  inhibition [%]: -2.27
- molecule: "c1ccc(-c2ccc(C(c3ccccc3)n3ccnc3)cc2)cc1 (configuration not stated)"
  inhibition [%]: 12.3
- molecule: "CCOC(=O)N1CCC(=C2c3ccc(Cl)cc3CCc3cccnc32)CC1"
  inhibition [%]: -3.56
- molecule: "CN(C)CCC[C@@]1(c2ccc(F)cc2)OCc2cc(C#N)ccc21"
  inhibition [%]: -1.98
- molecule: "Nc1c2c(nc3ccccc13)CCCC2"
  inhibition [%]: -4.36
- molecule: "CCOC(=O)[C@H](CCc1ccccc1)N[C@@H](C)C(=O)N1Cc2ccccc2C[C@H]1C(=O)O"
  inhibition [%]: -8.64
- molecule: "O=C1[C@H](CC[C@H](O)c2ccc(F)cc2)[C@@H](c2ccc(O)cc2)N1c1ccc(F)cc1"
  inhibition [%]: 2.77
- molecule: "C[C@@H]1O[C@@H](OC[C@H]2O[C@@H](Oc3c(-c4ccc(O)c(O)c4)oc4cc(O)cc(O)c4c3=O)[C@H](O)[C@@H](O)[C@@H]2O)[C@H](O)[C@H](O)[C@H]1O"
  inhibition [%]: 5.94
- molecule: "Cn1c(=O)c2[nH]cnc2n(C)c1=O"
  inhibition [%]: 0.45
- molecule: "CN=C(NC#N)NCCSCc1nc[nH]c1C"
  inhibition [%]: -3.18
- molecule: "O=C(C1CCCCC1)N1CC(=O)N2CCc3ccccc3C2C1 (configuration not stated)"
  inhibition [%]: -5.91
- molecule: "CCCCCCNC(=O)n1cc(F)c(=O)[nH]c1=O"
  inhibition [%]: 0.4
- molecule: "O=c1[nH]cnc2[nH]ncc12"
  inhibition [%]: -5
- molecule: "CCOC(=O)C1=C(C)NC(C)=C(C(=O)OC)C1c1cccc([N+](=O)[O-])c1 (configuration not stated)"
  inhibition [%]: 4.36
- molecule: "NCCc1ccc(O)c(O)c1"
  inhibition [%]: -5.91
- molecule: "CCCCCN=C(N)N/N=C/c1c[nH]c2ccc(OC)cc12"
  inhibition [%]: 8.32

====

Test: survival rescue of mitochondrial mutant cells in low glucose, primary screen, MELAS cybrids, Rieske KO mouse fibroblasts, CellTiter-Glo (AID 1508586);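 further: z relative to plate mean and SD of compound and empty wells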
Settings: Rieske KO mouse fibroblast survival, CellTiter-Glo 72 h

- molecule: "Cc1ccc(O)c([C@H](CCN(C(C)C)C(C)C)c2ccccc2)c1"
  z-score: 0.484
- molecule: "CC[C@H](C)C(=O)O[C@H]1C[C@H](O)C=C2C=C[C@H](C)[C@H](CC[C@@H](O)C[C@@H](O)CC(=O)O)[C@H]21"
  z-score: -1.06
- molecule: "COc1cc(N2CCN(C(C)C)CC2)ccc1Nc1nc(Nc2cccc3ncccc23)c2cc[nH]c2n1"
  z-score: -0.0497
- molecule: "O=C1NC(=O)C(c2cccc(Cl)c2)=C1Nc1ccc(O)c(Cl)c1"
  z-score: -0.373
- molecule: "NS(=O)(=O)c1ccc(-c2ccc3c(NC(=O)C4CC4)n[nH]c3c2)cc1"
  z-score: -0.353
- molecule: "CC(C)[N+](C)(CCOC(=O)C1c2ccccc2Oc2ccccc21)C(C)C"
  z-score: 0.213
- molecule: "COc1ccc(C2=C(N3CCc4ccccc43)C(=O)NC2=O)cc1"
  z-score: -0.362
- molecule: "O=C1N=c2ccc(N=Cc3c(O)[nH]c4ccccc34)cc2=N1"
  z-score: -0.0625
- molecule: "CCOc1ccc2ccccc2c1C(=O)N[C@@H]1C(=O)N2[C@@H]1SC(C)(C)[C@@H]2C(=O)O"
  z-score: -0.47
- molecule: "Cc1cccc(Oc2nccc(-c3c(-c4ccc(F)cc4)ncn3C3CCNCC3)n2)c1C"
  z-score: -0.269
- molecule: "COc1cccc(-n2nc(C)c3c(N/N=C(\\C)c4ccncc4)ncnc32)c1"
  z-score: -0.494
- molecule: "CCc1ccc(Oc2nccc(-c3c(-c4ccc(F)cc4)ncn3C3CCNCC3)n2)cc1"
  z-score: -0.111
- molecule: "CC(C)c1ccc(Nc2nccc(-c3cnn4ncccc34)n2)cc1"
  z-score: -0.0455
- molecule: "COc1ccc2cc(-c3c(-c4ccncc4)nc(-c4ccc(S(C)=O)cc4)n3C)ccc2c1 (stereo not given)"
  z-score: -0.225
- molecule: "Cc1ccc2[nH]c(O)c(N=Nc3ccc(S(N)(=O)=O)cc3)c2c1"
  z-score: -0.00523
- molecule: "Nc1nc(-c2ccc(F)cc2)c(-c2ccc3ncccc3n2)s1"
  z-score: 0.128
- molecule: "Cc1ccc(O)cc1Nc1ccnc2ccc(S(C)(=O)=O)cc12"
  z-score: 3.87
- molecule: "C[C@@H](Oc1cc(-n2cnc3ccc(OCC4CCN(C)CC4)cc32)sc1C(N)=O)c1ccccc1Cl"
  z-score: 0.83
- molecule: "CN(C)CCOc1ccc(-c2nc(-c3ccc4c(c3)CC/C4=N\\O)c(-c3ccncc3)[nH]2)cc1"
  z-score: 2.06
- molecule: "COc1cc(Nc2ncc3c(C)nc(-c4cccc(C(F)(F)F)c4)n3n2)cc(OC)c1OC"
  z-score: 0.168
- molecule: "COc1cc2c(cc1Nc1nc(Nc3ccsc3C(N)=O)c3cc[nH]c3n1)N(C(=O)CN(C)C)CCC2"
  z-score: 10.1
- molecule: "Nc1nc(-c2cccc(Cl)c2)c(-c2ccc3ncccc3n2)s1"
  z-score: -0.0691
- molecule: "O/N=C1/CCc2cc(-c3nc(C4CCNCC4)[nH]c3-c3ccncc3)ccc21"
  z-score: -0.635
- molecule: "N#Cc1c(NC(=O)c2ccc(F)c3ccccc23)sc2c1CCCC2"
  z-score: 0.108
- molecule: "NS(=O)(=O)c1cccc(-c2ccc3c(NC(=O)C4CC4)n[nH]c3c2)c1"
  z-score: -0.475
- molecule: "COc1ccc2c(-c3ccnc(Nc4cccc(OC(F)(F)F)c4)n3)cnn2n1"
  z-score: -0.245
- molecule: "Nc1nc(-c2ccccn2)c(-c2ccc3ncccc3n2)s1"
  z-score: -0.22
- molecule: "NS(=O)(=O)c1ccc(N=Nc2c(O)[nH]c3ccc(C(=O)NCc4ccncc4)cc23)cc1"
  z-score: -0.126
- molecule: "CS(=O)(=O)Nc1ccc(N=Cc2c(O)[nH]c3ccccc23)cc1"
  z-score: -0.36
- molecule: "N#Cc1c(NC(=O)c2cccc3ccccc23)sc2c1CCCN2C(=O)C1CC1"
  z-score: -0.0978
- molecule: "Cc1cccc(C2NNCC2c2ccc3ncccc3n2)n1 (stereo not given)"
  z-score: -0.176
- molecule: "Cc1ccc(C(=O)NC2CC2)cc1-c1ccc2[nH]ncc2c1"
  z-score: -0.0886
- molecule: "COc1cc(N2CCN(C(C)C)CC2)ccc1Nc1nc(Nc2ccc(F)cc2C(N)=O)c2cc[nH]c2n1"
  z-score: 7.03
- molecule: "COC1=CC(=O)C[C@@H](C)[C@]12Oc1c(Cl)c(OC)cc(OC)c1C2=O"
  z-score: 0.726
- molecule: "Cc1ccc(-c2cc3c(NC(=O)C4CC4)ncnc3o2)cc1"
  z-score: 0.346
